# Target Under Test: human Nav1.8 (Homo sapiens (Human))
# Sequence (Q9Y5Y9 whole entry): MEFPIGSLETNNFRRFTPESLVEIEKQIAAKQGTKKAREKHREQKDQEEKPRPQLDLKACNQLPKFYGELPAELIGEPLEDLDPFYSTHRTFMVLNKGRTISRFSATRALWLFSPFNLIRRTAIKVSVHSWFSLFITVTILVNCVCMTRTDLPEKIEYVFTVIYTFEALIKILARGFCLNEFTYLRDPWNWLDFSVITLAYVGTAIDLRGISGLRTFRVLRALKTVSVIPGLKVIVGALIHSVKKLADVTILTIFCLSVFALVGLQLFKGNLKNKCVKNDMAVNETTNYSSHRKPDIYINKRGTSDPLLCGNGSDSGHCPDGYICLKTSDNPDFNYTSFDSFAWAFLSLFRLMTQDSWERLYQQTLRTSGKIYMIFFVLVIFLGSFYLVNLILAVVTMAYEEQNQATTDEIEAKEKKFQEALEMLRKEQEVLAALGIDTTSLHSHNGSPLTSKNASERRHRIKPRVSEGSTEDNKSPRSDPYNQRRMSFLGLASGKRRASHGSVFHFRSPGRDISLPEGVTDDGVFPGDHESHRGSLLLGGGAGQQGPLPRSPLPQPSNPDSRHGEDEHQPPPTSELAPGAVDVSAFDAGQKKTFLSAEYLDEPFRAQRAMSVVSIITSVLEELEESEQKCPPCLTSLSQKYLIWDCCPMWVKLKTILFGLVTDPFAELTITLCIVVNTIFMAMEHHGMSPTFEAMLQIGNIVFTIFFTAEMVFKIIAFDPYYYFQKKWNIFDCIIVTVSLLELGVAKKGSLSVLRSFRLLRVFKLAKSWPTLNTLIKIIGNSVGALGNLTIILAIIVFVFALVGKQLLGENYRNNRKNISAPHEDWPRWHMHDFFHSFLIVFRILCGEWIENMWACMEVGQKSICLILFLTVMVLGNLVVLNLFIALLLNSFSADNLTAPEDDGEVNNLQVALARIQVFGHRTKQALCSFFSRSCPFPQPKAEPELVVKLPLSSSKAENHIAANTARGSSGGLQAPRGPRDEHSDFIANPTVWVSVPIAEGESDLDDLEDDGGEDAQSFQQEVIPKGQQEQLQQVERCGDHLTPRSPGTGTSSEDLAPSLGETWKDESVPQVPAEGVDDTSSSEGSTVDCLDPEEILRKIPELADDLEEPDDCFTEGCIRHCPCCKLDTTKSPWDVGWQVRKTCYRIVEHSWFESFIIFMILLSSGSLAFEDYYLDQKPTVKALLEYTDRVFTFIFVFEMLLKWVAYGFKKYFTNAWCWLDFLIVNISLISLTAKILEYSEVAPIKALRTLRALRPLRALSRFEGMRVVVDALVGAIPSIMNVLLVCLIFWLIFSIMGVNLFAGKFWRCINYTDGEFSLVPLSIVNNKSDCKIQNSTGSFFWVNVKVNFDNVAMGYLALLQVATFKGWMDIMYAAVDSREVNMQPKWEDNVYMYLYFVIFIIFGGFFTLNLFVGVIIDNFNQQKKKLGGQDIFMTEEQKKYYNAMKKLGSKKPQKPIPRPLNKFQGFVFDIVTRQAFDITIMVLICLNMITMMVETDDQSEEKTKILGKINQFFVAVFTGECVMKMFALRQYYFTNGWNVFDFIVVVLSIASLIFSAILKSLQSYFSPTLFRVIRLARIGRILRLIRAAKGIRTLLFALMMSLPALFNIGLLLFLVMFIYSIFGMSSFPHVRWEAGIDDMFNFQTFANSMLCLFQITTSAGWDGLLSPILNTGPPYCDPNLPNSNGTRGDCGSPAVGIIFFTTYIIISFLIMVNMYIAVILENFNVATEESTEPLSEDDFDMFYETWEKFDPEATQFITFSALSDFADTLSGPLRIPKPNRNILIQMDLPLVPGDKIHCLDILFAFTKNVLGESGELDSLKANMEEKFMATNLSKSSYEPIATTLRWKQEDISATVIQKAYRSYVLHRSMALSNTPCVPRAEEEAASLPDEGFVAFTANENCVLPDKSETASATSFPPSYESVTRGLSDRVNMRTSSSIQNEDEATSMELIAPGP
# Protocol Details: E-VIPR optical membrane potential assay with electrical stimulation
# Particulars: HEK cells expressing human Nav1.8
Observation Type: IC50 (nM)

In [3]: df
Out[3]:
                              smiles_record  observation_type  data_value
0  NS(=O)(=O)c1cccc(NC(=O)c2ccc(OC(F)(F)F)cc2Oc2ccccc2OC(F)F)c1              IC50          22
1  Cc1cc(F)ccc1Oc1cc(Cl)cc(Cl)c1C(=O)Nc1cccc(S(N)(=O)=O)c1              IC50           1

[A] COc1c(Cl)cccc1Oc1cc(C(F)(F)F)ccc1C(=O)Nc1cccc(S(N)(=O)=O)c1
[B] COc1ccc(Oc2ccc(C(F)(F)F)cc2C(=O)Nc2cccc(S(N)(=O)=O)c2)cc1F
[C] Cc1cc(F)ccc1Oc1ccc(Cl)cc1C(=O)Nc1cccc(S(N)(=O)=O)c1
[D] CC(C)Oc1ccc(Oc2ccc(C(F)(F)F)cc2C(=O)Nc2cccc(S(N)(=O)=O)c2)cc1
Prompt: Hello, I need these entries ordered by IC50, highest reading first. Thanks! I would appreciate it if you listed the labels in the requested order.
Response: B, A, D, C
(B: 16 nM, A: 9 nM, D: 6 nM, C: 4 nM)
